Would you mind telling me the reported Geo. Mean Fluorescence of each entry?
# assaySystem: T1, L-SIGN receptor on cells (K562/L-SIGN) (human, UniProt Q9H2X3 1-399)
# T1 construct: whole, on cells; also called L-SIGN on LSECs
# T1 sequence (looked up): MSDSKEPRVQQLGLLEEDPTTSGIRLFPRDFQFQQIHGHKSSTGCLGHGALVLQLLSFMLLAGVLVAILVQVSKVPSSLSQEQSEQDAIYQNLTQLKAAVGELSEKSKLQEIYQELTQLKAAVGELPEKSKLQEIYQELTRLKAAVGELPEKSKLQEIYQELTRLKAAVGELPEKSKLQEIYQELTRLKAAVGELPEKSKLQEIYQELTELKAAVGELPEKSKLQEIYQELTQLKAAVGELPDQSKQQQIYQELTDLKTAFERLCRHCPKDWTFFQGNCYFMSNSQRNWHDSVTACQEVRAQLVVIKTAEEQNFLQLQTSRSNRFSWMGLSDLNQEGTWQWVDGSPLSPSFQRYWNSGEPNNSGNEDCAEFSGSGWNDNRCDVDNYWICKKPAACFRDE
# assayText: flow cytometry, K562/L-SIGN cells
# output: bare number, no unit

Using the record for IgG1k clone C7 (phage-Fab screening) (Fab, V domains shown) VH: EVQLQQSGPELEKPGASVKISCKASGYSFTGYNMNWVKQSSGKSLEWIGNFDPYYGVITYNQKFKGKATLTVDKSSSTAYMQLKSLTSEDSAVYYCARTATALYTMDYWGQGTSVTVSS VL: EIVLTQSPAIMSASPGEKVTMTCRASSSVSSSYLHWYQQKSGASPKLWIYSTSNLASGVPARFSGSGSGTSYSLTISSVEAEDAATYYCQQYSGYPLTFGSGTKLEIK , report its Geo. Mean Fluorescence.
101

Geo. Mean Fluorescence lookup needed for IgG1k clone A10 (Fab, V domains shown, phage-Fab screening) VH: EVQLQQSGPELEKPGASVKISCKASGYSFTGYNMNWVKQSNGKSLEWIGNIDPYYGDITYNQKFKGKATLTVDKSSSTAYMQLKSLTSEDSAVYYCARTATALYTMDYWGQGTSVTVSS VL: EIVLTQSPAIMSASLGERVTMTCTASSSVSSSYLHWYQQKPGSSPKLWIYSTSNLASGVPARFSGSGSGTSYSLTISSMEAEDAATYYCHQYHRSPQTFGGGTKLEIK , thanks.
21.3

Report Geo. Mean Fluorescence for IgG1k clone D8 (Fab, V domains shown, phage-Fab screening) VH: EVQLQQSGPELEKPGASVKISCKASGYSFTGYNMNWVKQSNGKSLEWIGNIDPYYGGSSYNQKFKGKATLTVDKSSSTAYMQLKSLTSEDSAVYYCARTATALYTMDYWGQGTSVTVSS VL: EIVLTQSPAIMSASPGEKVTMTCRASSSVSSSYLHWYQQKSGASPKLWIYSTSNLASGVPARFSGSGSGTSYSLTISSVEAEDAATYYCQQYSGYPGTFGGGTKLEIK please.
17.3

Requested read-out: Geo. Mean Fluorescence. Entry: IgG1k clone B7 (Fab, V domains shown, phage-Fab screening) VH: EVQLQQSGPELEKPGASVKISCKASGYSFTGYNMNWVKQSSGKSLEWIGNFDPYYGVITYNQKFKGKATLTVDKSSSTAYMQLKSLTSEDSAVYYCARTATALYTMDYWGQGTSVTVSS VL: EIVLTQSPAIMSASPGEKVTMTCRASSSVSSSYLHWYQQKSGASPKLWIYSTSNLASGVPARFSGSGSGTSYSLTISSVEAEDAATYYCQQYSGYPLTFGSGTKLEIK
90.9
